Source listed as the OligoGym collection.

# measured_on: UBE2S
# assay_notes: reporter assay of Huesken 2005
# conditions: siRNA
Oligonucleotides are written 5' to 3', each unit as a sugar letter and its base; * is a phosphorothioate linkage, no mark a phosphodiester; rarer units and linkages stand in square brackets, end groups in braces. Plain capitals give the bases only. d = 2'-deoxy (DNA); r = 2'-OH (RNA)
normalised inhibition (eCFP-eYFP dual reporter) overview

// solved cases for normalised inhibition (eCFP-eYFP dual reporter) follow
# substance, value_measured
measured = [
    ("sense rUrCrArCrCrArUrCrGrArGrGrGrCrCrCrUrGrAdTdT / antisense rUrCrArGrGrGrCrCrCrUrCrGrArUrGrGrUrGrAdCdC", "35.9%"),
    ("sense rCrUrCrCrArCrCrGrArCrCrCrUrGrGrGrGrCrCdTdT / antisense rGrGrCrCrCrCrArGrGrGrUrCrGrGrUrGrGrArGdGdA", "44%"),
    ("sense rCrGrGrUrCrGrGrGrCrCrCrUrGrGrCrCrArGrUdTdT / antisense rArCrUrGrGrCrCrArGrGrGrCrCrCrGrArCrCrGdGdC", "41.5%"),
    ("sense rGrGrGrCrCrGrArArGrCrCrGrGrUrCrGrGrGrCdTdT / antisense rGrCrCrCrGrArCrCrGrGrCrUrUrCrGrGrCrCrCdTdG", "36.4%"),
    ("sense rGrGrUrGrArCrGrArCrArCrUrGrArCrCrGrCrAdTdT / antisense rUrGrCrGrGrUrCrArGrUrGrUrCrGrUrCrArCrCdTdC", "88.7%"),
]

// moving on: another record for normalised inhibition (eCFP-eYFP dual reporter)
Prompt line: # returns recorded normalised inhibition (eCFP-eYFP dual reporter) (system: UBE2S) for sense rGrArCrArCrGrUrArCrUrGrCrUrGrArCrCrArUdTdT / antisense rArUrGrGrUrCrArGrCrArGrUrArCrGrUrGrUrCdGdG; note: test concentration or dose not given here
Response line: 85.5%
